assay: Pharmacokinetics of dendrimer-doxorubicin or doxorubicin after intravenous administration or pulmonary instillation to rats; conditions: male, Sprague-Dawley, rat, plasma, inhaled or intranasal, 0.6 mg
Measurement Kind: AUC (µg·h/mL)
One number for each entry, in µg·h/mL.

State the recorded AUC for this entry: COc1cccc2c1C(=O)c1c(O)c3c(c(O)c1C2=O)C[C@@](O)(C(=O)CO)C[C@@H]3O[C@H]1C[C@H](N)[C@H](O)[C@H](C)O1
0.17

###

experiment: Pharmacokinetic studies of RHa-5 and RHa-15, single IV or SC administration, compared with RDV; format: in vivo, animals (mammals); details: male, in vivo, iv, 6.17 mg/kg
Measurement Kind: concentration at 24 h (ng/mL)
Answers are plain numbers, in ng/mL.

State the recorded concentration at 24 h for this entry: CCC(CC)COC(=O)[C@H](C)N[P@](=O)(OC[C@H]1O[C@@](C#N)(c2ccc3c(N)ncnn23)[C@H](O)[C@@H]1O)Oc1ccccc1 [RDV]
1.8
